test system: HCC-15; assay: relative viability (nuclei count vs DMSO), 5 days (fraction); higher = more cells survive; conditions: first compound 0.3162 µM
measurement_name: relative viability
// response body must contain only the number

Example cases with answers are listed next.
NC(=O)Nc1cc(-c2cccc(F)c2)sc1C(=O)N[C@H]1CCCNC1 [AZD7762] + Cc1nc(NC(=O)N2CCC[C@H]2C(N)=O)sc1-c1ccnc(C(C)(C)C(F)(F)F)c1 [Alpelisib] (partner 2 µM) = 0.93
NC(=O)Nc1cc(-c2cccc(F)c2)sc1C(=O)N[C@H]1CCCNC1 [AZD7762] + C[C@@H](Oc1cc(-c2cnn(C3CCNCC3)c2)cnc1N)c1c(Cl)ccc(F)c1Cl [Crizotinib] (partner 1 µM) = 0.774
NC(=O)Nc1cc(-c2cccc(F)c2)sc1C(=O)N[C@H]1CCCNC1 [AZD7762] + O=C(c1cc(Cc2n[nH]c(=O)c3ccccc23)ccc1F)N1CCN(C(=O)C2CC2)CC1 [Olaparib] (partner 8 µM) = 1.04
NC(=O)Nc1cc(-c2cccc(F)c2)sc1C(=O)N[C@H]1CCCNC1 [AZD7762] + CC(=O)Nc1cccc(-n2c(=O)n(C3CC3)c(=O)c3c(Nc4ccc(I)cc4F)n(C)c(=O)c(C)c32)c1 [Trametinib] (partner 0.02 µM) = 0.351

Now look at this one.
Please look at this compound and report its relative viability: NC(=O)Nc1cc(-c2cccc(F)c2)sc1C(=O)N[C@H]1CCCNC1 [AZD7762] + CCNC(=O)c1noc(-c2cc(C(C)C)c(O)cc2O)c1-c1ccc(CN2CCOCC2)cc1 [Luminespib] (partner 0.01 µM)
0.163

* * *

test system: NCI-H3122; assay: relative viability (nuclei count vs DMSO), 5 days (fraction); higher = more cells survive; conditions: first compound 0.05 µM
measurement_name: relative viability
// response body must contain only the number

Example cases with answers are listed next.
CC1(C)CCC(c2ccc(Cl)cc2)=C(CN2CCN(c3ccc(C(=O)NS(=O)(=O)c4ccc(N[C@H](CCN5CCOCC5)CSc5ccccc5)c(S(=O)(=O)C(F)(F)F)c4)cc3)CC2)C1 [Navitoclax] + CS(=O)(=O)N1CCN(Cc2cc3nc(-c4cccc5[nH]ncc45)nc(N4CCOCC4)c3s2)CC1 [Pictilisib] (partner 1 µM) = 0.537
CC1(C)CCC(c2ccc(Cl)cc2)=C(CN2CCN(c3ccc(C(=O)NS(=O)(=O)c4ccc(N[C@H](CCN5CCOCC5)CSc5ccccc5)c(S(=O)(=O)C(F)(F)F)c4)cc3)CC2)C1 [Navitoclax] + Cc1cc(Nc2cc(N3CCN(C)CC3)nc(Sc3ccc(NC(=O)C4CC4)cc3)n2)n[nH]1 [Tozasertib] (partner 0.1 µM) = 0.481
CC1(C)CCC(c2ccc(Cl)cc2)=C(CN2CCN(c3ccc(C(=O)NS(=O)(=O)c4ccc(N[C@H](CCN5CCOCC5)CSc5ccccc5)c(S(=O)(=O)C(F)(F)F)c4)cc3)CC2)C1 [Navitoclax] + COc1cccc2cc(-c3nc([C@H]4CC[C@H](C(=O)O)CC4)n4ncnc(N)c34)[nH]c12 [OSI-027] (partner 0.5 µM) = 1.04

Now look at this one.
Recall the reported relative viability of CC1(C)CCC(c2ccc(Cl)cc2)=C(CN2CCN(c3ccc(C(=O)NS(=O)(=O)c4ccc(N[C@H](CCN5CCOCC5)CSc5ccccc5)c(S(=O)(=O)C(F)(F)F)c4)cc3)CC2)C1 [Navitoclax] + CC(=O)Nc1cccc(-n2c(=O)n(C3CC3)c(=O)c3c(Nc4ccc(I)cc4F)n(C)c(=O)c(C)c32)c1 [Trametinib] (partner 0.02 µM) when tested on NCI-H3122.
0.217
